System: 217524-143-R1-J4-PDC spheroids with HUVEC/MSC, viability
experiment summary: Anticancer human tumor 217524-143-R1-J4-PDC patient-derived pancreatic carcinoma cell line growth inhibition [CLK]; active means viability on the fitted dose curve at most 10% of control; inactive means the rest
conditions used: second compound 1 µM; first compound 3.16 µM
From the text: A high-throughput screen of multi-cell type tumor spheroids was designed to identify active combinations of […] and targeted small molecules. Complex spheroids include a stromal component modeled by human endothelial cells (HUVEC) and fibroblasts modeled by human mesenchymal stem cells (MSCs). […] Compounds. […] If the clinical Cmax for an agent had not been determined, the highest concentration tested was 10 microM. […]
Classes used: 1 = active, 0 = inactive

molecule | assigned category
COc1cccc2c1C(=O)c1c(O)c3c(c(O)c1C2=O)CC(O)(C(=O)CO)CC3OC1CC(N)C(O)C(C)O1 (stereo not given) + CNC(=O)c1ccc(Nc2nc(OC3CCCC3)c3c(-c4ccc5nc(C)oc5c4)c[nH]c3n2)c(OC)c1 | 1
CC1COCCN1c1cc(C2(S(C)(=N)=O)CC2)nc(-c2ccnc3[nH]ccc23)n1 (stereo not given) + CNC(=O)c1ccc(Nc2nc(OC3CCCC3)c3c(-c4ccc5nc(C)oc5c4)c[nH]c3n2)c(OC)c1 | 0
C=C(F)C(=O)N1CCN(c2nc(OCC3CCCN3C)nc3c2CCN(c2cccc4cccc(Cl)c24)C3)CC1CC#N (stereo not given) + CNC(=O)c1ccc(Nc2nc(OC3CCCC3)c3c(-c4ccc5nc(C)oc5c4)c[nH]c3n2)c(OC)c1 | 0
Nc1ccn(C2OC(CO)C(O)C2(F)F)c(=O)n1 (stereo not given) + CN1CCN(c2cc(C(=O)Nc3cc4cc(-c5cnn(C)c5)ccc4cn3)ccn2)CC1 | 1
Nc1ccccc1NC(=O)c1ccc(CNC(=O)OCc2cccnc2)cc1 + CNC(=O)c1ccc(Nc2nc(OC3CCCC3)c3c(-c4ccc5nc(C)oc5c4)c[nH]c3n2)c(OC)c1 | 0

====

Test system: 217524-143-R1-J4-PDC spheroids with HUVEC/MSC, viability
experiment summary: Anticancer human tumor 217524-143-R1-J4-PDC cell line growth inhibition [CLK]; active = viability on the fitted dose curve at most 10% of control; inactive = the rest;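 further: spheroids exposed to agents for seven days before reading; 100% = DMSO vehicle control viability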
conditions used: second compound 10 µM; first compound 0.0949 µM
Classes used: active, inactive

molecule | assigned category
CC(C)CC(NC(=O)C(Cc1ccccc1)NC(=O)c1cnccn1)B(O)O (stereo unspecified) + CN1CCN(c2cc(C(=O)Nc3cc4cc(-c5cnn(C)c5)ccc4cn3)ccn2)CC1 | active
C=CC(=O)Nc1cc(Nc2nccc(-c3cn(C)c4ccccc34)n2)c(OC)cc1N(C)CCN(C)C + CN1CCN(c2cc(C(=O)Nc3cc4cc(-c5cnn(C)c5)ccc4cn3)ccn2)CC1 | active
NC(=O)C(=Cn1cnc(-c2cc(C(F)(F)F)cc(C(F)(F)F)c2)n1)c1cncnc1 + CN1CCN(c2cc(C(=O)Nc3cc4cc(-c5cnn(C)c5)ccc4cn3)ccn2)CC1 | active
CC(C)CC(NC(=O)C(Cc1ccccc1)NC(=O)c1cnccn1)B(O)O (stereo unspecified) + CNC(=O)c1ccc(Nc2nc(OC3CCCC3)c3c(-c4ccc5nc(C)oc5c4)c[nH]c3n2)c(OC)c1 | active
NC(=O)C(=Cn1cnc(-c2cc(C(F)(F)F)cc(C(F)(F)F)c2)n1)c1cncnc1 + CNC(=O)c1ccc(Nc2nc(OC3CCCC3)c3c(-c4ccc5nc(C)oc5c4)c[nH]c3n2)c(OC)c1 | active
C=CC(=O)Nc1cc(Nc2nccc(-c3cn(C)c4ccccc34)n2)c(OC)cc1N(C)CCN(C)C + CNC(=O)c1ccc(Nc2nc(OC3CCCC3)c3c(-c4ccc5nc(C)oc5c4)c[nH]c3n2)c(OC)c1 | inactive
